# protocol.text: Cytotoxicity against mouse J774.A1 cells assessed as cell viability at 25 ug/ml measured after 24 hrs by CCK8 assay relative to control
# Assay type: cell-based
# measurement.context: at 25 µg/mL, read-out: Activity
property.measured: viability at 24 h, 25 ug/ml (%)
# value in %; strip the unit string

Need viability at 24 h, 25 ug/ml, item CC(C)=CCn1c2ccccc2c2c(OCC(O)CNC(=N)N)cccc21 (configuration not stated) 78.2

Fill in the blank: the reported viability at 24 h, 25 ug/ml of CN[C@H](CC(C)C)C(=O)N[C@H]1C(=O)N[C@@H](CC(N)=O)C(=O)N[C@H]2C(=O)N[C@H]3C(=O)N[C@H](C(=O)N[C@H](C(=O)O)c4cc(O)cc(O)c4-c4cc3ccc4O)[C@H](O)c3ccc(c(Cl)c3)Oc3cc2cc(c3O[C@@H]2O[C@H](CO)[C@@H](O)[C@H](O)[C@H]2O[C@H]2C[C@](C)(N)[C@H](O)[C@H](C)O2)Oc2ccc(cc2Cl)[C@H]1O is ____. 92

----------
# protocol.text: Cytotoxicity against mouse corneal epithelial cells assessed as cell viability at 100 ug/ml measured after 24 hrs by CCK8 assay relative to control
# Assay type: cell-based
# measurement.context: at 100 µg/mL, read-out: Activity
property.measured: viability at 24 h, 100 ug/ml (%)
Kindly answer with a numeric value in %, unit omitted.

Sample CC(C)=CCn1c2ccccc2c2c(OCC(O)CNC(=N)N)cccc21 (stereo unspecified) — what was its viability at 24 h, 100 ug/ml? 6.65

----------
# protocol.text: Selectivity index, ratio of HC50 for rabbit erythrocytes to MIC for Staphylococcus aureus ATCC 29213
# Type: toxicity
# measurement.context: read-out: Selectivity Index
property.measured: selectivity ratio

Please give the measured selectivity ratio for this compound: CC(C)=CCn1c2ccccc2c2c(OCC(O)CNC(=N)N)cccc21 (stereo unspecified) > 128

----------
# protocol.text: Cytotoxicity against mouse corneal epithelial cells assessed as cell viability at 12.5 ug/ml measured after 24 hrs by CCK8 assay relative to control
# Type: cell-based
# measurement.context: at 12.5 µg/mL, read-out: Activity
property.measured: viability at 24 h, 12.5 ug/ml (%)
Numbers only here, please. The scale is %.

Recorded viability at 24 h, 12.5 ug/ml for CC(C)=CCn1c2ccccc2c2c(OCC(O)CNC(=N)N)cccc21 (stereo unspecified) , please? 75.1

----------
# protocol.text: Cytotoxicity against mouse corneal epithelial cells assessed as cell viability at 3.125 ug/ml measured after 24 hrs by CCK8 assay relative to control
# Format: cell-based
# measurement.context: at 3.125 µg/mL, read-out: Activity
property.measured: viability at 24 h, 3.125 ug/ml (%)
Please state the figure in %; there is no need to write the unit.

Request the reported viability at 24 h, 3.125 ug/ml associated with CC(C)=CCn1c2ccccc2c2c(OCC(O)CNC(=N)N)cccc21 (stereo unspecified) 87.9

----------
# Test system: Staphylococcus aureus
# protocol.text: Antibacterial activity against methicillin-resistant Staphylococcus aureus NCTC 10442 measured after 24 hrs by microplate reader analysis
# Assay type: functional
Would you kindly list MIC for each of these compounds?
API: value field is a number in µg/mL; no unit string.

What value of MIC has been reported for the following compound? CC(C)=CCn1c2ccccc2c2c(OCC(O)CN)cccc21 (stereo not drawn) 6.25

# input compound: CCCCCn1c2ccccc2c2c(OCC(O)CN(C)C)cccc21 (stereo not drawn) ; wanted: its MIC 6.25

# lookup: MIC of CCCCCCCn1c2ccccc2c2c(OCC(O)CN(C)C)cccc21 (stereo not drawn) 12.5

Which MIC value is on record for CC(C)=CCn1c2ccccc2c2c(OCC(O)CN3CCCC3)cccc21 (stereo not drawn) ? 6.25

Look at this compound and give its reported MIC. CC(C)=CCn1c2ccccc2c2c(OCC(O)CN3CCN(C)CC3)cccc21 (stereo not drawn) 12.5

Quick one: MIC of CN[C@H](CC(C)C)C(=O)N[C@H]1C(=O)N[C@@H](CC(N)=O)C(=O)N[C@H]2C(=O)N[C@H]3C(=O)N[C@H](C(=O)N[C@H](C(=O)O)c4cc(O)cc(O)c4-c4cc3ccc4O)[C@H](O)c3ccc(c(Cl)c3)Oc3cc2cc(c3O[C@@H]2O[C@H](CO)[C@@H](O)[C@H](O)[C@H]2O[C@H]2C[C@](C)(N)[C@H](O)[C@H](C)O2)Oc2ccc(cc2Cl)[C@H]1O ? 1.56

# input compound: CC(C)=CCn1c2ccccc2c2c(OCC(O)CNC(=O)[C@@H](N)CCCNC(=N)N)cccc21 (stereo partly drawn) ; wanted: its MIC 6.25

Which MIC is listed for CC(C)=CCn1c2ccccc2c2c(OCC(O)CN(CCO)CCO)cccc21 (stereo not drawn) ? 25

Request the reported MIC associated with N=C(N)NCC(O)COc1cccc2[nH]c3ccccc3c12 (stereo not drawn) 50

Need MIC, item CC(C)=CCn1c2ccccc2c2c(OCC(O)CNC(C)C)cccc21 (stereo not drawn) 3.12

Item under review: CCCC[N+](C)(CCCC)CC(O)COc1cccc2c1c1ccccc1n2CC=C(C)C.[I-] (stereo not drawn) . Reported MIC? 1.56

What value of MIC has been reported for the following compound? CC[N+](C)(CC)CC(O)COc1cccc2c1c1ccccc1n2CC=C(C)C.[I-] (stereo not drawn) 6.25

# get_value(readout='MIC', item= CCCn1c2ccccc2c2c(OCC(O)CN(C)C)cccc21 (stereo not drawn) ) 50

Recorded MIC of CCCCCCCCCCNCC(O)COc1cccc2c1c1ccccc1n2CC=C(C)C (stereo not drawn) , please. 3.12

Can you look up the measured MIC of CC(C)=CCn1c2ccccc2c2c(OCC(O)CN3CCCCC3)cccc21 (stereo not drawn) for me? 3.12

What MIC value was documented for this compound, CCCNCC(O)COc1cccc2c1c1ccccc1n2CC=C(C)C (stereo not drawn) ? 6.25

Bench note: what MIC did CC(C)=CCn1c2ccccc2c2c(OCC(O)CNC(=N)N)cccc21 (stereo not drawn) show? 1.56

Looking for the measured MIC of CCN(CC)CC(O)COc1cccc2c1c1ccccc1n2CC=C(C)C (stereo not drawn) , can you help? 12.5

So what's the measured MIC for this one? CCCCCCCCCn1c2ccccc2c2c(OCC(O)CN(C)C)cccc21 (stereo not drawn) 6.25

Any idea what MIC was measured for CCCCCCCCNCC(O)COc1cccc2c1c1ccccc1n2CC=C(C)C (stereo not drawn) ? 1.56

Any idea what MIC was measured for CCNCC(O)COc1cccc2c1c1ccccc1n2CC=C(C)C (stereo not drawn) ? 6.25

Which MIC value belongs to CC(C)=CCn1c2ccccc2c2c(OCC(O)CN(C)C)cccc21 (stereo not drawn) ? 3.12

Any idea what MIC was measured for CC(C)=CCn1c2ccccc2c2c(OCC(O)CNC(=O)[C@@H](N)CCCCN)cccc21 (stereo partly drawn) ? 25

Would you mind telling me what MIC value was observed for CCCCCNCC(O)COc1cccc2c1c1ccccc1n2CC=C(C)C (stereo not drawn) ? 12.5

Entry source: ChEMBL document CHEMBL4725344
